# STUDY TARGET: T1, CD47 overexpressing Jurkat cells (Homo sapiens, UniProt Q08722)
# T1 construct: endogenous in cells; host or cells: Jurkat cells
# T1 sequence (Q08722 19-323): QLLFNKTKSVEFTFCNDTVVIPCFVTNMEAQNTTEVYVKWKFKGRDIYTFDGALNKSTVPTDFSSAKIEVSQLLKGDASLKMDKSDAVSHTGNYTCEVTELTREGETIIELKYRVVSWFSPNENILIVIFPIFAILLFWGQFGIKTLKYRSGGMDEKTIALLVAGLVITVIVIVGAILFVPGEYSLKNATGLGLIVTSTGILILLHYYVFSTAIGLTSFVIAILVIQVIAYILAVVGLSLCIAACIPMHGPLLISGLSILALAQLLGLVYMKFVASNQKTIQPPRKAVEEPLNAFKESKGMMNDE
# ASSAY PROTOCOL: Competitive binding assay on CD47 overexpressing Jurkat cells
# CONDITIONS USED: against FITC-conjugated anti-CD47 B6H12.2 at ~33.3 nM; 3 h on ice
Quick reference for IC50 among some molecules
State just the number; it will be interpreted in nM.

Worked cases, answers included:
MOLECULE	RECORDED RESULT
mutant 6-arm PEG-SIRPα IgV: 6-arm PEG-3.4K conjugated with Q67R mutant SIRPα IgV-like domain (conjugate) EEELQVIQPDKSVLVAAGETATLRCTATSLIPVGPIRWFRGAGPGRELIYNQKEGHFPRVTTVSDLTKRNNMDFSIRIGNITPADAGTYYCVKFRKGSPDDVEFKSGAGTELSVRA	1.06
wide-type 4-arm PEG-SIRPα IgV: 4-arm PEG-2K conjugated with wide-type SIRPα IgV-like domain (conjugate) EEELQVIQPDKSVLVAAGETATLRCTATSLIPVGPIQWFRGAGPGRELIYNQKEGHFPRVTTVSDLTKRNNMDFSIRIGNITPADAGTYYCVKFRKGSPDDVEFKSGAGTELSVRA	8.12
mutant 4-arm PEG-SIRPα IgV: 4-arm PEG-2K conjugated with Q67R mutant SIRPα IgV-like domain (conjugate) EEELQVIQPDKSVLVAAGETATLRCTATSLIPVGPIRWFRGAGPGRELIYNQKEGHFPRVTTVSDLTKRNNMDFSIRIGNITPADAGTYYCVKFRKGSPDDVEFKSGAGTELSVRA	10.9

Shift focus to the following entry.
IN: Query: IC50; subject: wide-type 6-arm PEG-SIRPα IgV: 6-arm PEG-3.4K conjugated with wide-type SIRPα IgV-like domain (conjugate) EEELQVIQPDKSVLVAAGETATLRCTATSLIPVGPIQWFRGAGPGRELIYNQKEGHFPRVTTVSDLTKRNNMDFSIRIGNITPADAGTYYCVKFRKGSPDDVEFKSGAGTELSVRA
OUT: 0.723

These entries and their values trace back to patent US20210230248A1.
